meta.source: ChEMBL document CHEMBL4270590

assayed target: Orexin/Hypocretin receptor type 1 (Homo sapiens)
Sequence (O43613 whole entry): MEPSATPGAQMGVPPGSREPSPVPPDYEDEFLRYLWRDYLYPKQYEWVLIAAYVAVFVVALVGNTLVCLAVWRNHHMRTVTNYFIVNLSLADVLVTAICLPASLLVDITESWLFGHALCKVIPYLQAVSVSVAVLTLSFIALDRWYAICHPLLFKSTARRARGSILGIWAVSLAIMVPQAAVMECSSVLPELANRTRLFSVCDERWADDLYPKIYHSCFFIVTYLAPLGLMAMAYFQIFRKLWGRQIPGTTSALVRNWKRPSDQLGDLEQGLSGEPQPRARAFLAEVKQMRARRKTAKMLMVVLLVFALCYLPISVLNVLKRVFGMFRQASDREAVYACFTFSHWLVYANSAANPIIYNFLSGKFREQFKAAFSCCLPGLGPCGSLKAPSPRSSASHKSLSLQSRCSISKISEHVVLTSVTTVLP
assay name: Antagonist activity at human OX1 receptor expressed in CHOK1 cells assessed as inhibition of orexin-A-induced calcium accumulation preincubated for 30 mins followed by orexin-A addition measured for 150 secs by calcium-4 dye based FLIPR assay
protocol conditions: read-out: Ki(app)
pKi: −log10 of the molar value.

smiles record	pKi
CCOc1ccc(-c2cc(C(=O)c3ccccc3)c3ccc(C(=O)O)ccc2-3)cc1	5.12 to 5.51
COC(=O)c1cc(CN2CCOCC2)c2ccc(Cl)ccc1-2	5.12 to 5.27
COC(=O)c1cccc2c(C=O)cc(I)c-2c1	5.32

====

assayed target: Orexin/Hypocretin receptor type 1 (Homo sapiens) (UniProt O43613)
Sequence (whole entry): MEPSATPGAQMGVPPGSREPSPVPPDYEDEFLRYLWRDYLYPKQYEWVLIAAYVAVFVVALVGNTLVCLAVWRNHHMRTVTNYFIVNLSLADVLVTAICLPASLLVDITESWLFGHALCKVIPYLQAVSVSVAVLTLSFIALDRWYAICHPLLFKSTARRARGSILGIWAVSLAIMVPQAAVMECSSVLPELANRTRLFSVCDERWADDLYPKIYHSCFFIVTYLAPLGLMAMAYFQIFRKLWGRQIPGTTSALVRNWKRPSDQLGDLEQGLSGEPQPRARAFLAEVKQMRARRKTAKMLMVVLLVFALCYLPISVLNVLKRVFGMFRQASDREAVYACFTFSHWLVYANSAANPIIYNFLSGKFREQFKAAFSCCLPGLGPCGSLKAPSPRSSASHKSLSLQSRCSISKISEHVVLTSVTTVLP
assay name: Displacement of [125I]-orexin-A from human OX1 receptor expressed in CHOK1 cells at 10 uM incubated for 10 mins and measured after 90 mins by liquid scintillation counting method relative to control
Type: cell-based
Listed here: items and their measured inhibition.

smiles record	inhibition, %
COC(=O)c1cccc2c(C(=O)c3ccccc3)cc(C(=O)c3ccc(C(Cl)(Cl)Cl)cc3)c-2c1	10.4
CCOc1ccc(-c2cc(C(=O)c3ccccc3)c3ccc(C(=O)OC)ccc2-3)cc1	8.4
COC(=O)c1cc(C=O)c2ccc(/C=C/c3cnc[nH]3)ccc1-2	23
O=C(O)c1cccc2c(C(=O)c3ccccc3)cc(C(=O)c3ccc(C(Cl)(Cl)Cl)cc3)c-2c1	19.9
CC(C)(C)OC(=O)NCC(=O)Oc1ccc2ccc(Cl)ccc1-2	-4.5
O=C(O)Cc1ccc2ccc(C(=O)c3ccc(C(F)(F)F)cc3)c-2cc1	8.6
O=C(Oc1ccc2ccc(Cl)ccc1-2)c1cccnc1	-2.4
O=C(O)c1cccc2c(C(=O)c3ccccc3)cc(C(=O)c3ccc(C(F)(F)F)cc3)c-2c1	18.3
COC(=O)c1ccc2ccc(C=O)c-2cc1	25
O=Cc1ccc2ccc(C(=O)O)ccc1-2	37.8
Cc1ccc2ccc(C(=O)c3ccc(C(F)(F)F)cc3)c-2cc1	38.3
COC(=O)c1ccc2ccc(C(=O)c3ccccc3)c-2cc1	7.2
NC(=O)c1ccc2c(C=O)cc(-c3ccccc3)c-2cc1	6.1
NC(=O)c1ccc2ccc(C(=O)c3ccccc3)c-2cc1	13.6
COC(=O)CCC(=O)Oc1ccc2ccc(Cl)ccc1-2	8
COC(=O)c1cccc2c(C(=O)c3ccccc3)cc(C(=O)c3ccc(C(F)(F)F)cc3)c-2c1	10.4
COC(=O)c1cc(CN2CCOCC2)c2ccc(Cl)ccc1-2	24.5
O=C(OCc1ccccc1)Oc1ccc2ccc(Cl)ccc1-2	18.2
O=C(Oc1ccc2ccc(Cl)ccc1-2)c1ccccc1	0.1
COC(=O)c1ccc2c(C=O)cc(-c3ccccc3)c-2cc1	8.5
O=Cc1cc(-c2ccccc2)c2ccc(C(=O)O)ccc1-2	16.2
O=C(Oc1ccc2ccc(Cl)ccc1-2)c1cccs1	9.8
O=C(O)c1ccc2ccc(C(=O)c3ccccc3)c-2cc1	11
COC(=O)c1cccc2c(C=O)cc(I)c-2c1	40.7

====

Form field: Ki (one value per entry).
assayed target: Orexin receptor type 2 (Homo sapiens, UniProt O43614)
Sequence (O43614 whole entry): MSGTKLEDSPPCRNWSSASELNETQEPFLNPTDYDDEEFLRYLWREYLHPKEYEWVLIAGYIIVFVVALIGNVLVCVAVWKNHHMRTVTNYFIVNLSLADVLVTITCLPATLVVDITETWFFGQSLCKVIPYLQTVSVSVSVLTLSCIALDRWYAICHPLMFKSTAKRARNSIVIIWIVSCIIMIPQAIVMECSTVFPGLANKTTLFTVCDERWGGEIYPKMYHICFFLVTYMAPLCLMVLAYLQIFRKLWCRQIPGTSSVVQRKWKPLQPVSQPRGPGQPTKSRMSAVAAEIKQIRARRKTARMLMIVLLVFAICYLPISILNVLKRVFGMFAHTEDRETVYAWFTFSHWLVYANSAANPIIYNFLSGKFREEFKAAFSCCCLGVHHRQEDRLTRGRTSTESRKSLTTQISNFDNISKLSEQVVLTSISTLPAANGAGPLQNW
assay name: Antagonist activity at human OX2 receptor expressed in CHOK1 cells assessed as inhibition of orexin-A-induced calcium accumulation preincubated for 30 mins followed by orexin-A addition measured for 150 secs by calcium-4 dye based FLIPR assay
protocol conditions: read-out: Ki(app)
quantity kind: Ki

smiles record	observed
CCOc1ccc(-c2cc(C(=O)c3ccccc3)c3ccc(C(=O)O)ccc2-3)cc1	3.2 to 4.9 µM
COC(=O)c1cc(CN2CCOCC2)c2ccc(Cl)ccc1-2	4.3 to 8.6 µM
COC(=O)c1cccc2c(C=O)cc(I)c-2c1	3.6 µM

====

assayed target: Orexin receptor type 2 (Homo sapiens) (UniProt O43614)
Sequence (O43614 whole entry): as above
assay name: Allosteric agonist activity at human OX2 receptor expressed in CHOK1 cells assessed as potentiation of orexin-A induced calcium accumulation at 10 uM preincubated for 30 mins followed by orexin-A addition and measured for 150 secs by calcium-4 dye based FLIPR assay relative to control
Type: functional, cell-based
As shown below, each of these molecules has a reported fold change (FC) value.

smiles record	fold change (FC)
COC(=O)c1ccc2c(I)cc(C(=O)c3ccccc3)c-2cc1	1.02
O=C(O)c1ccc2ccc(C(=O)c3ccccc3)c-2cc1	0.98
O=C(O)Cc1ccc2ccc(C(=O)c3ccc(C(F)(F)F)cc3)c-2cc1	0.98

====

assayed target: Orexin/Hypocretin receptor type 1 (Homo sapiens)
assay name: Agonist activity at human OX1 receptor expressed in CHOK1 cells assessed as increase in calcium accumulation at 10 uM incubated for 30 mins measured for 150 secs by calcium-4 dye based FLIPR assay relative to orexin-A
Format: functional, cell-based
The following compounds are listed with their measured Emax values.

smiles record	scale unit	Emax
COC(=O)Cc1ccc2ccc(C(=O)c3ccc(C(F)(F)F)cc3)c-2cc1	%	1.28
O=C(Oc1ccc2ccc(Cl)ccc1-2)c1cccnc1	%	0.6
COC(=O)c1ccc2c(I)cc(C(=O)c3ccccc3)c-2cc1	%	1.17
COC(=O)c1cc(C=O)c2ccc(/C=C/c3cnc[nH]3)ccc1-2	%	2.35
O=C(Oc1ccc2ccc(Cl)ccc1-2)c1cccs1	%	0.91
COC(=O)c1cccc2c(C(=O)c3ccccc3)cc(C(=O)c3ccc(C(Cl)(Cl)Cl)cc3)c-2c1	%	0.69
COC(=O)c1ccc2ccc(C=O)c-2cc1	%	3.06
CCOc1ccc(-c2cc(C(=O)c3ccccc3)c3ccc(C(=O)O)ccc2-3)cc1	%	-0.17
